assay: gradient 5% acetonitrile 3 min, to 50% in 2 min, to 85% in 15 min, held 3 min, 100 µL/min; details: column: Zorbax Extend-C18 2.1 x 50 mm; eluents: water / acetonitrile, 0.1% formic acid
measurement_type: RP-LC retention time (s)

1: O=C(C1CCN(S(=O)(=O)Cc2ccc(F)cc2)CC1)N1CCCC1
2: O=C(Cc1ccc(Cl)cc1)N1CCCn2nc(-c3ccc(Cl)cc3)cc2C1
Exercise: Please let me know which one, 1 or 2 , has a lower measured RP-LC retention time value. Which one? Tell me its label.
Key: 1

====

experiment: gradient 5% acetonitrile 3 min, to 50% in 2 min, to 85% in 15 min, held 3 min, 100 µL/min; settings: column: Zorbax Extend-C18 2.1 x 50 mm; eluents: water / acetonitrile, 0.1% formic acid
measurement_type: RP-LC retention time (s)

molecule: Cc1ccsc1C(=O)Nc1ccc2c(N3CCCCC3)ncnc2c1
unit_text: s
endpoint_value: 686

molecule: CSc1ccccc1C(=O)N1CC2CC1C(=O)O2 (stereo not given)
unit_text: s
endpoint_value: 628

molecule: O=C(Cn1nc(C(=O)N2CCCC2)c2ccccc21)NCc1ccc(F)cc1
unit_text: s
endpoint_value: 780

molecule: O=C(N[C@H]1C[C@@H]2C[C@H]1CN2C(=O)Nc1ccc2c(c1)CCC2)c1ccccc1
unit_text: s
endpoint_value: 829

molecule: CCN1C(=O)NC(c2cccc(F)c2)C2=C1CN(CCC(=O)NCCOC)C2=O (stereo not given)
unit_text: s
endpoint_value: 586

molecule: Cc1cccc(NC(=O)NCC(c2cccnc2)c2cn(C)c3ccccc23)c1C (stereo not given)
unit_text: s
endpoint_value: 719

molecule: COCCNC(=O)NCCS(=O)(=O)N1CCN(c2cccc(C)c2)CC1
unit_text: s
endpoint_value: 661

molecule: O=C(Cn1nc2n(c1=O)CCCC2)NCc1ccccc1
unit_text: s
endpoint_value: 640

molecule: COc1ccc(/C=C2\N=C(c3ccccc3)OC2=O)c(OCc2ccccc2)c1
unit_text: s
endpoint_value: 981

molecule: Cc1cc(F)cc2c(=O)c3c([nH]c12)CCN(CC(=O)Nc1ccc2c(c1)OCO2)C3
unit_text: s
endpoint_value: 615

molecule: CC(C)(CO)NCc1ccc(-c2ccc(Cl)cc2)o1
unit_text: s
endpoint_value: 655

molecule: CC(Cc1ccco1)NC(=O)C1CCN(Cc2cn(C)c3ccc(Cl)cc23)CC1 (stereo not given)
unit_text: s
endpoint_value: 707

molecule: Cc1ccccc1Nc1nc(N)c2c(F)cccc2n1
unit_text: s
endpoint_value: 610

molecule: COc1ccc(CNC(=O)C2CCN(c3ncnc4c3oc3ccccc34)CC2)c(OC)c1
unit_text: s
endpoint_value: 752

molecule: Cc1ccc(C)c(NC(=O)CSc2nccc(N3CCN(c4cc(C)ccc4C)CC3)n2)c1
unit_text: s
endpoint_value: 989

molecule: Cc1ccc(-c2nc(C(N)=O)c3n2CCCCC3)cc1
unit_text: s
endpoint_value: 690

molecule: CCc1ccc(-c2cc3c(=O)n(Cc4noc(CN5CCCC5)n4)ccn3n2)cc1
unit_text: s
endpoint_value: 694

molecule: Cc1noc(COC2CCCN(C(=O)CCc3c(C)noc3C)C2)n1 (stereo not given)
unit_text: s
endpoint_value: 678

molecule: CC(=O)c1ccc(NS(C)(=O)=O)c(Oc2ccc(F)cc2F)c1
unit_text: s
endpoint_value: 954

molecule: COc1ccc(-c2csc3c(=O)n(Cc4ccccn4)cnc23)cc1
unit_text: s
endpoint_value: 815
